tested on: SW-620; test: Antiproliferative activity against human SW-620 cells assessed as reduction in cell proliferation by CellTiter-Glo luminescent cell viability assay; type: functional; details: Homo sapiens, SW-620
Observable: GI50 (µM)
Answer in µM, number only, no unit symbol.

For orientation, consider the following solved cases.
>>> value_observed("NC(=O)c1cc2c([nH]1)-c1ccncc1OC21CCC1")
10
>>> value_observed("CCn1c(C(N)=O)cc2c1-c1ccncc1OC2(C)C")
3.39

Ask | GI50 lookup needed for NC(=O)c1cc2c(n1CCF)-c1ccncc1OC21CCCCC1 , thanks.
Reply | 1

* * *

molecular target: UniProt P49336; assay: Inhibition of CDK8 in human SW-620 cells assessed as reduction in IFNgamma-induced STAT1 S727 phosphorylation pre-incubated for 1 hr before IFNgamma stimulation for 3 hrs by Western blot analysis; type: cell-based; conditions: time 4.0 hrs
Sequence (P49336 whole entry): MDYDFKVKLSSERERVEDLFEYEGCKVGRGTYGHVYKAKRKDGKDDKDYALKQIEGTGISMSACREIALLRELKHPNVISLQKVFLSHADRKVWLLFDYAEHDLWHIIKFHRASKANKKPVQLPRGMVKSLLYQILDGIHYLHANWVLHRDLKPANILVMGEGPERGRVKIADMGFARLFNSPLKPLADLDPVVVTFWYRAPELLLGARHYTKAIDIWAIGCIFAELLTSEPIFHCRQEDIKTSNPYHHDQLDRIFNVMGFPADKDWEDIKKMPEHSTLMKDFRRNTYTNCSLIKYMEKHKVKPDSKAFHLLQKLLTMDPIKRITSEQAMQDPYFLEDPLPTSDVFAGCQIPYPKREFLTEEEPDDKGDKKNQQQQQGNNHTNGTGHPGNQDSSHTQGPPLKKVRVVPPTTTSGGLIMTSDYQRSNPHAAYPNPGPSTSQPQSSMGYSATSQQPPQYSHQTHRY
The compounds listed here are annotated with their INH.

>>> value_observed("COCCn1c(C(N)=O)cc2c1-c1ccncc1OC2(C)C")
"< 500 nM"
>>> value_observed("NC(=O)c1cc2c([nH]1)-c1ccncc1OC2C1CCOCC1 (stereo in doubt; form 2)")
"< 500 nM"
>>> value_observed("NC(=O)c1cc2c([nH]1)-c1ccncc1OC2C1CCOCC1 (stereo in doubt; form 1)")
"500 nM"
>>> value_observed("CCn1c(C(N)=O)c(-c2ccccc2OC)c2c1-c1ccncc1OC2(C)C")
"< 500 nM"
>>> value_observed("NC(=O)c1cc2c([nH]1)-c1ccncc1O[C@H]2C1CCCCC1")
"< 500 nM"

Ask | Could you share which INH value was measured for COc1ccccc1-c1c2c(n(CCF)c1C(N)=O)-c1ccncc1OC2(C)C ?
Reply | < 500 nM

Ask | Please do the same for CC1(C)Oc2cnccc2-c2c1cc(C(N)=O)n2CCF as well.
Reply | < 500 nM

Ask | Continue with NC(=O)c1cc2c([nH]1)-c1ccncc1OC2C1CCCCC1 (stereo not drawn)
Reply | < 500 nM

* * *

// values below are reported INH
target: Serine/threonine-protein kinase haspin (Homo sapiens); assay: Inhibition of haspin in synchronized human SW620 cells assessed as reduction in IFNgamma-induced H3T3 phosphorylation pre-incubated for 1 hr before IFNgamma stimulation for 3 hrs by Western blot analysis; assay type: cell-based; conditions: SW-620, time 4.0 hrs
Answer in µM, number only, no unit symbol.

>>> value_observed("NC(=O)c1cc2c([nH]1)-c1ccncc1OC2C1CCCCC1 (centres undefined)")
0.5

Turning to the following molecule.
Ask | Which INH reading was recorded for the molecule NC(=O)c1cc2c([nH]1)-c1ccncc1OC2C1CCOCC1 (stereo in doubt; form 2) ?
Reply | 0.5

* * *

biological target: Serine/threonine-protein kinase haspin (Homo sapiens, UniProt Q8TF76); test: Inhibition of haspin in human SW620 cells assessed as reduction in IFNgamma-induced H3T3 phosphorylation pre-incubated for 1 hr before IFNgamma stimulation for 3 hrs by Western blot analysis; type: cell-based, SW-620
Sequence (Q8TF76 whole entry): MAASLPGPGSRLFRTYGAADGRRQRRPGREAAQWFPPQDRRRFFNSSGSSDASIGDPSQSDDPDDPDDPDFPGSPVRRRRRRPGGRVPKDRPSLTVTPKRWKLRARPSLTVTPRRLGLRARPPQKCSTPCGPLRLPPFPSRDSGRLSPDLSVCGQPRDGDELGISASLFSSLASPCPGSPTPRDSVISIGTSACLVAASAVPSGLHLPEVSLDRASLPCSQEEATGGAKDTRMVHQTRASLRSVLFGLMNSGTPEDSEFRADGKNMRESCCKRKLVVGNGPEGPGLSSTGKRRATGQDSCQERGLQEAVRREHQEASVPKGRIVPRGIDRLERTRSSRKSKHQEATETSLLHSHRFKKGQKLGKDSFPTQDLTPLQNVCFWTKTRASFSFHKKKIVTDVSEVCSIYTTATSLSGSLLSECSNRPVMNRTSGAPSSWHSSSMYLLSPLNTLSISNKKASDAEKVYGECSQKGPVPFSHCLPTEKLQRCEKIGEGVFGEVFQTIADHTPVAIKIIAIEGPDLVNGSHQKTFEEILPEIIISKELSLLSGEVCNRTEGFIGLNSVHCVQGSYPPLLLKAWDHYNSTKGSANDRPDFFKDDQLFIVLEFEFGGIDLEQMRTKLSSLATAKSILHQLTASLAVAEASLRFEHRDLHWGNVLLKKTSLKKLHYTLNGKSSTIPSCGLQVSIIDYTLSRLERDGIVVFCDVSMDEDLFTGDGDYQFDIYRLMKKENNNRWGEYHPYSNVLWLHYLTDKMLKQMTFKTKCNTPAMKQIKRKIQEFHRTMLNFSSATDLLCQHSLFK
Observable: pIC50
Quick note: pIC50 means taking -log10 of the concentration in moles per liter.

Ask | I am curious: what pIC50 value has been reported for CCn1c(C(N)=O)cc2c1-c1ccncc1OC2(C)C ?
Reply | 8.80

* * *

system: MDA-MB-231; test: Antiproliferative activity against human MDA-MB-231 cells assessed as reduction in cell proliferation by CellTiter-Glo luminescent cell viability assay; format: functional; conditions: Homo sapiens, MDA-MB-231
Observable: GI50 (nM)
Report as a plain number; the unit nM is understood.

>>> value_observed("NC(=O)c1cc2c(n1CCF)-c1ccncc1OC21CCCCC1")
1000
>>> value_observed("CCn1c(C(N)=O)cc2c1-c1ccncc1OC21CCOCC1")
1000

Ask | Form field: reported GI50 of CCn1c(C(N)=O)c(-c2cccc(OC)c2)c2c1-c1ccncc1OC2(C)C
Reply | 10000

Ask | Follow-up item: CC1(C)Oc2cnccc2-c2c1cc(C(N)=O)n2CCF
Reply | 1000

Ask | Can you check CC1(C)Oc2cnccc2-c2[nH]c(C(N)=O)c(C3CC3)c21 next?
Reply | 1000

Ask | Another compound: COCCn1c(C(N)=O)cc2c1-c1ccncc1OC21CCOCC1
Reply | 10000

Ask | Also check CN(NC(=O)CC(=O)NN(C)C(=S)c1ccccc1)C(=S)c1ccccc1 [ELESCLOMOL]
Reply | 250

Ask | // repeat for CCn1c(C(N)=O)cc2c1-c1ccncc1OC2(C)C and report
Reply | 3500

The measurements presented in this section are drawn from ChEMBL document CHEMBL4742387.
